Tested on: Vcap cells
experiment: CTG cell proliferation assay on Vcap cells (compounds alone or in combination, 5 days)
Type: cell-based
experimental context: tested compound 0.1 μM in combination with 1 μM Enzalutamide
Would you please tag the item YES when its Survival rate of Vcap cells is 40% or above, and NO when it is below?

{"compound": "Nc1cc(F)cc2c1CN([C@H]1CCC(=O)NC1=O)C2=O", "class assignment": "YES"}
{"compound": "[2H][C@@]1(N2Cc3c(N)cc(F)cc3C2=O)CCC(=O)NC1=O", "class assignment": "YES"}
{"compound": "[2H]C1(N2Cc3c(N)cc(F)cc3C2=O)CCC(=O)NC1=O (stereo not shown)", "class assignment": "YES"}
{"compound": "[2H][C@]1(N2Cc3c(OCc4ccc(CN5CCOCC5)cc4F)cccc3C2=O)CCC(=O)NC1=O", "class assignment": "NO"}
{"compound": "Nc1cc(F)cc2c1CN(C1CCC(=O)NC1=O)C2=O (stereo not shown)", "class assignment": "NO"}
{"compound": "Nc1cc(F)cc2c1CN([C@@H]1CCC(=O)NC1=O)C2=O", "class assignment": "YES"}
{"compound": "[2H][C@]1(N2Cc3c(N)cc(F)cc3C2=O)CCC(=O)NC1=O", "class assignment": "NO"}

###

Test system: Vcap cells
experiment: CTG cell proliferation assay on Vcap cells (compounds alone or in combination, 5 days)
Format: cell-based
experimental context: Homo sapiens, VCaP, 120 h, tested compound alone, 0.1 μM; read-out: Survival rate of Vcap cells
viability at 0.1 µM values, listed per item
attribute measured: viability at 0.1 µM (%)

{"compound": "[2H][C@]1(N2Cc3c(N)cc(F)cc3C2=O)CCC(=O)NC1=O", "reported measurement": 83.3}
{"compound": "[2H][C@]1(N2Cc3c(OCc4ccc(CN5CCOCC5)cc4F)cccc3C2=O)CCC(=O)NC1=O", "reported measurement": 81.5}
{"compound": "C[C@]12CC[C@H](O)CC1=CC[C@@H]1[C@@H]2CC[C@]2(C)C(n3cnc4ccccc43)=CC[C@@H]12 [Galeterone, reference compound]", "reported measurement": 95.9}
{"compound": "[2H]C1(N2Cc3c(N)cc(F)cc3C2=O)CCC(=O)NC1=O (centres unmarked)", "reported measurement": 84.4}
{"compound": "CC(C)C(=O)Nc1ccc([N+](=O)[O-])c(C(F)(F)F)c1 [Flutamide, reference compound]", "reported measurement": 105}
{"compound": "CC(=O)O[C@H]1CC[C@@]2(C)C(=CC[C@@H]3[C@@H]2CC[C@]2(C)C(c4cccnc4)=CC[C@@H]32)C1 [Abiraterone acetate, reference compound]", "reported measurement": 106}
{"compound": "CC(=O)O[C@]1(C(C)=O)CC[C@H]2[C@@H]3C=C(C)C4=CC(=O)CC[C@]4(C)[C@H]3CC[C@@]21C [Megestrol Acetate, reference compound]", "reported measurement": 99.7}
{"compound": "Nc1cc(F)cc2c1CN(C1CCC(=O)NC1=O)C2=O (centres unmarked)", "reported measurement": 77.7}
{"compound": "[2H][C@@]1(N2Cc3c(N)cc(F)cc3C2=O)CCC(=O)NC1=O", "reported measurement": 86.8}
{"compound": "CC(=O)S[C@@H]1CC2=CC(=O)CC[C@]2(C)[C@H]2CC[C@@]3(C)[C@@H](CC[C@@]34CCC(=O)O4)[C@H]12 [Spironolactone, reference compound]", "reported measurement": 100}
{"compound": "Nc1cc(F)cc2c1CN([C@H]1CCC(=O)NC1=O)C2=O", "reported measurement": 84.7}
{"compound": "Nc1cc(F)cc2c1CN([C@@H]1CCC(=O)NC1=O)C2=O", "reported measurement": 86.3}
{"compound": "C[C@]12C=CC(=O)C=C1CC[C@@H]1[C@@H]2C(=O)C[C@@]2(C)[C@H]1CC[C@]2(O)C(=O)CO [Prednisone, reference compound]", "reported measurement": 99.1}
{"compound": "CC(=O)O[C@]1(C(C)=O)CC[C@H]2[C@@H]3C=C(Cl)C4=CC(=O)[C@@H]5C[C@@H]5[C@]4(C)[C@H]3CC[C@@]21C [Cyproterone Acetate, reference compound]", "reported measurement": 97.2}

###

Survival rate of LNCap cells values, listed per item
Tested on: LNCap cells
experiment: CTG cell proliferation assay on LNCap cells (method of Effect embodiment 1)
Assay type: cell-based
experimental context: tested compound alone, 1 μM
attribute measured: Survival rate of LNCap cells (%)

{"compound": "CC(=O)O[C@H]1CC[C@@]2(C)C(=CC[C@@H]3[C@@H]2CC[C@]2(C)C(c4cccnc4)=CC[C@@H]32)C1 [Abiraterone acetate, reference compound]", "endpoint unit": "%", "reported measurement": 90.7}
{"compound": "C[C@]12CC[C@H](O)CC1=CC[C@@H]1[C@@H]2CC[C@]2(C)C(n3cnc4ccccc43)=CC[C@@H]12 [Galeterone, reference compound]", "endpoint unit": "%", "reported measurement": 79}
{"compound": "[2H][C@]1(N2Cc3c(N)cc(F)cc3C2=O)CCC(=O)NC1=O", "endpoint unit": "%", "reported measurement": 61.5}
{"compound": "Nc1cc(F)cc2c1CN(C1CCC(=O)NC1=O)C2=O (stereo not drawn)", "endpoint unit": "%", "reported measurement": 63}
{"compound": "CNC(=O)c1ccc(N2C(=S)N(c3ccc(C#N)c(C(F)(F)F)c3)C(=O)C2(C)C)cc1F [Enzalutamide, reference compound]", "endpoint unit": "%", "reported measurement": 70.5}
{"compound": "CNC(=O)c1ccc(N2C(=S)N(c3cnc(C#N)c(C(F)(F)F)c3)C(=O)C23CCC3)cc1F [ARN-509, reference compound]", "endpoint unit": "%", "reported measurement": 86.7}

###

Test system: Vcap cells
experiment: CTG cell proliferation assay on Vcap cells (compounds alone or in combination, 5 days)
Format: cell-based
experimental context: Homo sapiens, VCaP, 120 h, tested compound alone, 1 μM; read-out: Survival rate of Vcap cells

{"compound": "Nc1cc(F)cc2c1CN([C@H]1CCC(=O)NC1=O)C2=O", "viability at 1 µM [%]": 80.9}
{"compound": "CC(=O)O[C@]1(C(C)=O)CC[C@H]2[C@@H]3C=C(C)C4=CC(=O)CC[C@]4(C)[C@H]3CC[C@@]21C [Megestrol Acetate, reference compound]", "viability at 1 µM [%]": 103}
{"compound": "CC(O)(CS(=O)(=O)c1ccc(F)cc1)C(=O)Nc1ccc(C#N)c(C(F)(F)F)c1 (stereo not shown) [bicalutamide, reference compound]", "viability at 1 µM [%]": 94}
{"compound": "CC(=O)O[C@]1(C(C)=O)CC[C@H]2[C@@H]3C=C(Cl)C4=CC(=O)[C@@H]5C[C@@H]5[C@]4(C)[C@H]3CC[C@@]21C [Cyproterone Acetate, reference compound]", "viability at 1 µM [%]": 96}
{"compound": "Nc1cc(F)cc2c1CN([C@@H]1CCC(=O)NC1=O)C2=O", "viability at 1 µM [%]": 84.1}
{"compound": "[2H][C@]1(N2Cc3c(N)cc(F)cc3C2=O)CCC(=O)NC1=O", "viability at 1 µM [%]": 72.5}
{"compound": "CC(C)C(=O)Nc1ccc([N+](=O)[O-])c(C(F)(F)F)c1 [Flutamide, reference compound]", "viability at 1 µM [%]": 96.7}
{"compound": "Nc1cc(F)cc2c1CN(C1CCC(=O)NC1=O)C2=O (stereo not shown)", "viability at 1 µM [%]": 65.4}
{"compound": "[2H][C@]1(N2Cc3c(OCc4ccc(CN5CCOCC5)cc4F)cccc3C2=O)CCC(=O)NC1=O", "viability at 1 µM [%]": 81}
{"compound": "C[C@]12CC[C@H](O)CC1=CC[C@@H]1[C@@H]2CC[C@]2(C)C(n3cnc4ccccc43)=CC[C@@H]12 [Galeterone, reference compound]", "viability at 1 µM [%]": 62.8}
{"compound": "[2H][C@@]1(N2Cc3c(N)cc(F)cc3C2=O)CCC(=O)NC1=O", "viability at 1 µM [%]": 79}
{"compound": "CC(=O)O[C@H]1CC[C@@]2(C)C(=CC[C@@H]3[C@@H]2CC[C@]2(C)C(c4cccnc4)=CC[C@@H]32)C1 [Abiraterone acetate, reference compound]", "viability at 1 µM [%]": 91.7}
{"compound": "C[C@]12C=CC(=O)C=C1CC[C@@H]1[C@@H]2C(=O)C[C@@]2(C)[C@H]1CC[C@]2(O)C(=O)CO [Prednisone, reference compound]", "viability at 1 µM [%]": 99.7}
{"compound": "CC(=O)S[C@@H]1CC2=CC(=O)CC[C@]2(C)[C@H]2CC[C@@]3(C)[C@@H](CC[C@@]34CCC(=O)O4)[C@H]12 [Spironolactone, reference compound]", "viability at 1 µM [%]": 91.3}
{"compound": "[2H]C1(N2Cc3c(N)cc(F)cc3C2=O)CCC(=O)NC1=O (stereo not shown)", "viability at 1 µM [%]": 77.4}
{"compound": "CC(O)c1cc(C(=O)N[C@@H](C)Cn2ccc(-c3ccc(C#N)c(Cl)c3)n2)[nH]n1 (stereo partly shown) [ODM-201, reference compound]", "viability at 1 µM [%]": 69}
